These data points were gathered from the supplement of paper PMC9254222.

System: HEK293T (UBE3A T485A transfected, BAR Wnt reporter)
test.method.notes: Renilla luciferase signal (cell health) relative to plate median (fold (linear ratio)); higher = higher Renilla signal
protocol.conditions: concentration: 10 uM; 24 h
Whole data set: some 1,100 compounds, median “Renilla luciferase signal (cell health) relative to plate median” near 0.97, cut for the highest 2% near 1.6. The entries come from a sample that favours the highest values as a whole.
measured.attribute: Renilla luciferase signal

Record excerpt, results attached:
>>> result_value("CCC(C)(C)c1ccc(O)cc1")
0.795
>>> result_value("Oc1ccc2ccc3cccc4ccc1c2c34 [1-Hydroxypyrene]")
1.09
>>> result_value("O=C1C2CC=CCC2C(=O)N1SC(Cl)(Cl)Cl (stereo not given)")
1.02
>>> result_value("CCC1(c2ccccc2)C(=O)N=C([O-])NC1=O.[Na+] (stereo not given) [Phenobarbital sodium]")
0.777

Now examine the next entry.
Look at this compound and give its reported Renilla luciferase signal. O=[N+]([O-])c1ccc(O)c([N+](=O)[O-])c1
0.966

* * *

System: HEK293T (UBE3A T485A transfected, BAR Wnt reporter)
test.method.notes: Renilla luciferase signal (cell health) relative to plate median (fold (linear ratio)); higher = higher Renilla signal
protocol.conditions: concentration: 1 uM; 24 h
In all, about 1,100 compounds were measured (“Renilla luciferase signal (cell health) relative to plate median”: median about 0.97, highest 2% from about 1.6 on). The sample as a whole holds a higher share of the highest values than the screen did.
Record TRUE whenever Renilla luciferase signal is at 1 or higher; record FALSE when lower.

// below: answered compounds
>>> group_label("CCCCOC(=O)c1ccccc1C(=O)OCc1ccccc1 [Benzyl butyl phthalate]")
"TRUE"
>>> group_label("CNC(=S)[S-].O.O.O.[Na+] [Metam-sodium hydrate]")
"TRUE"
>>> group_label("Cc1cccc(C)c1N")
"FALSE"

Please find the next compound below.
Check if Renilla luciferase signal >= 1 (inclusive). Item: Cc1ccc(/N=C/N(C)/C=N/c2ccc(C)cc2C)c(C)c1
TRUE

* * *

Tested on: HEK293T (UBE3A T485A transfected, BAR Wnt reporter)
test.method.notes: Renilla luciferase signal (cell health) relative to plate median (fold (linear ratio)); higher = higher Renilla signal
protocol.conditions: concentration: 0.1 uM; 24 h
The full ranking holds about 1,100 compounds; the median of “Renilla luciferase signal (cell health) relative to plate median” is about 0.97, and the highest 2% start at about 1.6. The sample holds the highest values, similar compounds and a random draw of the others, so the mix is not that of the screen.
Measured Renilla luciferase signal by item
// return just the number, without any unit appended

Record excerpt, results attached:
>>> result_value("CCCCCCCCc1ccc(O)cc1")
1.09
>>> result_value("CNC(=O)N(C)c1nnc(C(C)(C)C)s1")
0.795
>>> result_value("Clc1ccc(C(c2ccc(Cl)cc2)C(Cl)(Cl)Cl)cc1")
0.841
>>> result_value("O=C(Nc1ccc2[nH]ccc2c1)c1cc2cc(F)ccc2n1Cc1cccc(F)c1")
1.07
>>> result_value("CCOP(=S)(Oc1cnc(C(C)(C)C)nc1)OC(C)C (stereo not given)")
1.22

Look at this molecule and give its reported Renilla luciferase signal. CC(C)COC(=O)c1ccccc1C(=O)OCC(C)C [Diisobutyl phthalate]
0.825

Look at this molecule and give its reported Renilla luciferase signal. COC(=O)NS(=O)(=O)c1ccc(N)cc1
1.11

Look at this molecule and give its reported Renilla luciferase signal. Cc1ccc(/N=C/N(C)/C=N/c2ccc(C)cc2C)c(C)c1
1.17

Look at this molecule and give its reported Renilla luciferase signal. COc1nc(NC(C)C)nc(NC(C)C)n1
0.628

Look at this molecule and give its reported Renilla luciferase signal. COC(=O)c1ccccc1N [Methyl 2-aminobenzoate]
1.09
